- assayed-target: CPP32 Caspase-3 (Homo sapiens, UniProt P42574)
- Sequence (P42574 29-175 limits assumed): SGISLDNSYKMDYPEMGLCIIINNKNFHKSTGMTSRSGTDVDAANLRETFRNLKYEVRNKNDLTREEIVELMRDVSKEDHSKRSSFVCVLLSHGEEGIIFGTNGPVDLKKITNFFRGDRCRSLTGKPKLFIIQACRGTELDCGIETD
- Sequence (P42574 176-277 limits assumed): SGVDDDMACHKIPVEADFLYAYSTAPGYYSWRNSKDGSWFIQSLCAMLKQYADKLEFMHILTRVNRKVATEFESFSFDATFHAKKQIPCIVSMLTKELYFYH
reported-endpoint: pKi
Hey, just a heads up that pKi is the negative log base 10 of the concentration in molar.

Lab note: need pKi for CCCN1C(=O)CC[C@H](NC(=O)c2cc(Cl)c(O)c(Cl)c2)C(=O)N1CC(=O)N[C@H](C=O)CC(=O)O [Compound 11c] on CPP32 Caspase-3 (Homo sapiens, UniProt P42574), anyone have it?
4.65

###

- System: Human whole blood
- assay-info: Whole blood assay for IL-1β production
- Format: cell-based
- test-context: LPS 5.0 ng/ml, 16-18 hr at 30° C.
reported-endpoint: pIC50
# reply with the number alone; pIC50 is -log10 of concentration in mol/L

CC(C(=O)N[C@H](C=O)CC(=O)O)N1C(=O)[C@@H](NC(=O)c2cc(Cl)c(O)c(Cl)c2)CCC(=O)N1C (mixture of isomers)	6.08
O=C[C@H](CC(=O)O)NC(=O)CN1C(=O)[C@@H](NC(=O)c2nccc3ccccc23)CCC(=O)N1Cc1ccccc1 [Compound 11a]	5.14
CS(=O)(=O)N1CCC[C@H](NC(=O)c2cc(Cl)c(O)c(Cl)c2)C(=O)N1CC(=O)N[C@H](C=O)CC(=O)O	5.72

For the molecule shown here, CCCN1C(=O)CC[C@H](NC(=O)c2nccc3ccccc23)C(=O)N1CC(=O)N[C@H](C=O)CC(=O)O [Compound 11b] , give the reported pIC50.
5.24

Can you handle CCCN1C(=O)CC[C@H](NC(=O)c2cc(Cl)c(O)c(Cl)c2)C(=O)N1CC(=O)N[C@H](C=O)CC(=O)O [Compound 11c] next?
5.84
